Values compiled from patent WO2001072771A2.

# System Under Test: soluble IGF-1 receptor (human) (UniProt P08069)
# Assay Text: phage ELISA
ratio over background listing for selected binders.
Outcome Measure: ratio over background

Binder | Test Result
RQGTGSFYLMLEQLLVGARGP [20E2B-4-G11-IGFR] | 4.5
ICTGQGFYQVLCGLLRGTSAR [20E2B-2-B3-IGFR] | 5.3
RFDPFYSYFVNLLGASA [NNRPγ-4-A7-IR] | 6.3
ASSASGFYELLQRLAGLGLEV [20E2B-3-C4-IGFR] | 20.4
VRGFQGGTVWPGYEWLRNAA [R20β-4-E8-IR] | 34.9
VATSQGFYSGLSELLQGGGNV [20E2B-3-E12-IGFR] | 6
RCGRELYHSTFYDWFDRQVAGRTCPS [H2CA-1-A7-IGFR] | 2.2
